Assignment: determine reported reverse-splicing fitness for the given variants.
B1: Azoarcus group I ribozyme (parent)
chain: GUGCCUUGCGCCGGGAAACCACGCAAGGGAUGGUGUCAAAUUCGGCGAAACCUAAGCGCCCGCCCGGGCGUAUGGCAACGCCGAGCCAAGCUUCGGCGCCUGCGCCGAUGAAGGUGUAGAGACUAGACGGCACCCACCUAAGGCAAACGCUAUGGUGAAGGCAUAGUCCAGGGAGUGGCGAAAGUCACACAAACCGG

- Variants of: B1
- Experiment summary: reverse-splicing fitness (ratio to wild type); higher = more active; in vitro selection; Mg2+ level not given
The answer should be a number; do not append a unit.

What value of reverse-splicing fitness has been recorded for this entry: C82U A111G A120G A145C C150U C169G U176A 0.0203

What value of reverse-splicing fitness has been recorded for this entry: C82U A111C A120G A145G C150A C169G 0.00809

What value of reverse-splicing fitness has been recorded for this entry: C82A A120G A145C C150A U176C 0.00806
